# Lookup of reported GI50 keyed by entry
tested on: Malme-3M; test: NCI tumour cell line growth inhibition, 48 h
Calls of active or inactive are those of the source. Cut-off read from the data, not from the text of the source: active = GI50 up to about 1.1 µM and inactive = higher.

Here are 2 compounds together with their reported answers.
[N-]=[N+]=NCC(=O)c1cnc(O)nc1O ... > 100 µM (inactive)
O=S(=O)(O)CCCc1cccc2ccccc12 ... > 100 µM (inactive)

QUERY: Specify measured GI50 for CSc1nc(Cl)c2c(n1)Sc1nc3ccccc3n1C2O (configuration not stated) .
RESULT: 4.91 µM (inactive)

QUERY: Tell me its GI50 given "CC1=C(C(=O)Nc2ccccc2)C(c2ccccc2Cl)C(C(=O)Nc2ccccc2)=C(C)N1" as the entry.
RESULT: 20 µM (inactive)

QUERY: Provide GI50 value for the following compound: "CN/C=C(\C(=O)c1ccc(OC)c(OC)c1)c1ccc(OC)cc1"
RESULT: > 10 µM (inactive)

QUERY: Please list GI50 recorded for the compound C=CCC1(OC(C)=O)C2OC(=O)C1(O)OCC2O (configuration not stated)
RESULT: > 100 µM (inactive)

QUERY: Look up and report measured GI50 for this entry: "COc1ccc(/N=C2\C(=N/c3ccc(OC)cc3)N(S(=O)(=O)c3ccccc3)C(=S)N2c2ccccc2)cc1"
RESULT: > 100 µM (inactive)

====

system: DMS-273; experiment: NCI tumour cell line growth inhibition, 48 h
The source made the active and inactive calls. No stated cut-off is given here; in the data, active = GI50 up to about 1.1 µM and inactive = higher.
I would appreciate it if you answered using one of these outcomes: 1 (yes) (active), 0 (no) (inactive)

QUERY: Short answer needed: outcome of this test for "O=C(Nc1ccccc1-c1nn(CN2CCNCC2)c(=S)n(CN2CCNCC2)c1=O)C(F)(F)F" ?
RESULT: 0 (no)

QUERY: Hey, what did the test say about CCCC1C(=O)C(CC)Cc2c(OC)ccc(OC)c21 (centres undefined) ?
RESULT: 0 (no)

QUERY: Lab log entry: O=C(O)CCC(NC(=O)c1ccccc1)C(=O)O (centres undefined) — outcome as called in the assay?
RESULT: 0 (no)

QUERY: What is the recorded call for this compound in the test? COc1ccccc1/C=C1\CCC(CNc2ccc(Cl)cc2)C1=O (centres undefined)
RESULT: 0 (no)

QUERY: Record lookup: outcome of this test for "CN(C)CCC(/C=C/c1ccccc1)=N\Nc1ccccc1" ?
RESULT: 1 (yes)

QUERY: So what was the verdict on COC1(OC)C2(Cl)C(Cl)=C(Cl)C1(Cl)C1c3ccc(C(C)=O)c4cccc(c34)C12 (centres undefined) in this test?
RESULT: 0 (no)

====

test system: UO-31; test: NCI tumour cell line growth inhibition, 48 h
The source made the active and inactive calls. No stated cut-off is given here; in the data, active = GI50 up to about 1.1 µM and inactive = higher. Where a SMILES comes first, the peptide text is derived from it. The star is where a group is joined. Boc = CC(C)(C)OC(=O)*
Allowed answers: active, inactive

COc1cccc(/C=C2\CCC(C)(CN(C)C)C2=O)c1 (stereo not drawn) ... inactive
C=C(C)[C@@]12C[C@H](OC(=O)[C@H](O)[C@@H](NC(=O)c3ccccc3)c3ccccc3)C(C)=C1[C@@H](OC(C)=O)C(=O)[C@@]1(C)C([C@@H]2OC(=O)c2cc(F)cc(F)c2)C2(OC(C)=O)CO[C@@H]2C[C@@H]1O (stereo partly drawn) ... active
COc1ccc(CC2C3=C(CCCC3)CCN2C)cc1 (stereo not drawn) ... inactive

QUERY: Tell me the assay call for "O=C(NC/C=C/CO)c1ccccc1" please.
RESULT: inactive

QUERY: // outcome(item) with item = "CC1(C)N=C(N)N=C(N)N1c1cccc(OCc2cccc([N+](=O)[O-])c2)c1"
RESULT: inactive

QUERY: Which result was noted for this compound in the test: O=C1C2C3C4C1C1C2[C@H](OCc2ccccc2)C3C1[C@H]4OCc1ccccc1 (stereo partly drawn)
RESULT: inactive

QUERY: Each compound tested received a call. Report the one for "CC(C)=NNc1cnnc2ccc([N+](=O)[O-])cc12" .
RESULT: inactive

QUERY: Would you mind telling me which call this test gave "Cc1nnc2n1N=C(c1cc(F)c(Cl)cc1Cl)/C(=C/c1ccc(Cl)cc1)S2" ?
RESULT: inactive

QUERY: Outcome logged for "NC(=O)N/N=C/C(=C/Nc1ccccc1)[N+](=O)[O-]" in this assay:
RESULT: inactive

QUERY: Record request — test call for "COc1ccc(NC(=O)C/C(C)=N\N=C(N)N)c([N+](=O)[O-])c1"
RESULT: inactive

QUERY: Test call for this compound, please: "CN/C=C(\C(=O)c1ccc(OC)c(OC)c1)c1ccc(OC)cc1"
RESULT: inactive

QUERY: Dear colleague, could you share the recorded outcome for "CCO/C=C(\C(=O)OC)S(=O)(=O)c1ccc(C)cc1" when you have a moment?
RESULT: inactive

QUERY: Just curious, what result did "CC(=O)O[C@H]1[C@H](O[C@H]2CC[C@]34C[C@]35CC[C@]3(C)[C@@H]([C@@]6(C)CC[C@@H](C(C)(C)O)O6)[C@@H](O)C[C@@]3(C)[C@@H]5C[C@H](O[C@@H]3O[C@H](CO)[C@@H](O)[C@H](O)[C@H]3O)[C@H]4C2(C)C)OC[C@@H](O)[C@@H]1O" get here?
RESULT: inactive

QUERY: Short answer needed: outcome of this test for COc1ccc(/C=C2\N=C(N3CCCC(CO)C3)NC2=O)cc1 (stereo not drawn) ?
RESULT: inactive

QUERY: Each compound tested received a call. Report the one for CSCCC(NC(=O)C(CC(C)C)NC(=O)C1CCCN1C(=O)C(Cc1ccccc1)NC(=O)C(Cc1ccccc1)NC(=O)C(CCC(=O)O)NC(=O)OC(C)(C)C)C(N)=O (stereo not drawn) (Boc-EFFPLM-NH2; configuration not given here) .
RESULT: inactive

QUERY: Fill in: this test's call for "CCC/C(=N\NC(=S)N1CC2CCC(CC2)C1)c1ccccn1" is ___
RESULT: active

QUERY: What call does the record list for "COc1cc(-c2nc(SC)nc3c2CCc2ccccc2-3)cc(OC)c1OC" ?
RESULT: inactive

QUERY: So what was the verdict on "CCOC(=O)c1cnc2c(ccc3ncccc32)c1NCCCN(CC)CC" in this test?
RESULT: inactive
